- Test details: growth inhibition, single agent or in combination, cell-based, chromothripsis tumors, cisplatin or BGB combos (AID 1671449);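 also: cells exposed for 96 hours; 0% = vehicle DMSO and 100% = killing by high DMSO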
- Applied conditions: LFS_MB_P medulloblastoma cells, measured here: combination with BGB IC20, at 0.005 µM
Parameter: inhibition (%)
Express the result in % but write the number alone.

What value of measured inhibition is listed for CC(N)C12CC3CC(CC(C3)C1)C2 (stereo not drawn) ?
-16.1

Next compound up: O=C(O)P(=O)(O)O
-17.5

Another compound to check: NC(=O)NO
-13.7

Subsequent entry: C[C@H]1COc2c(C3(N)CC3)c(F)cc3c(=O)c(C(=O)O)cn1c23
-13

Now try O=c1c(O)c(-c2ccc(O)c(O)c2)oc2cc(O)cc(O)c12 .
17

Another: CCN1CCN(c2cc3c(cc2F)c(=O)c(C(=O)O)cn3C2CC2)CC1
-15.1

Now the same for Cc1ccnc2c1NC(=O)c1cccnc1N2C1CC1
-14.8

Could you do the same for Cc1nc2ccc(CN(C)c3ccc(C(=O)N[C@@H](CCC(=O)O)C(=O)O)s3)cc2c(=O)[nH]1 , please?
-6.5
